Below, each entry is listed alongside its reported TNFα Protein Expression (% relative to positive control).
# Test system: human surgical skin (skin resident immune cells), LPS
# procedure_text: skin Resident Immune Cell Assay (sRICA), topical screening, TNFα protein expression
# Assay type: cell-based
# measurement_setup: mean TNFα level in LPS treated samples set to 100%
Report the figure in % without appending any unit label.

Some solved entries appear below for comparison.
{"compound": "Cn1cc(NC(=O)c2coc(-c3ccnc(NCC4CC4)c3)n2)c(N2CCN(CCO)C2=O)n1", "obs_value": 74.41}
{"compound": "C=C(CC1=CC(C)C=C1C1CCC(CCC)C1=C)C1=CCC(c2cccc(CCC(C)(C)C)c2)=C1 (centres unmarked)", "obs_value": 64.03}
{"compound": "Cn1cc(NC(=O)c2coc(-c3ccnc(NCC(F)(F)F)c3)n2)c(N2CC(CNC3CC3)C(C)(C)C2=O)n1 (centres unmarked)", "obs_value": 72.95}
{"compound": "CNCC1CN(c2nn(C)cc2NC(=O)c2coc(-c3ccnc(NCC(F)(F)F)c3)n2)C(=O)C1(C)C (centres unmarked) [drawing 30]", "obs_value": 93.64}

(Q) Which TNFα Protein Expression (% relative to positive control) value is on record for `CC1(C)CCN(c2nn(C3COC3)cc2NC(=O)c2coc(-c3ccnc(NCC(F)(F)F)c3)n2)C1=O` ?
(A) 97.84

---

# Tested on: human surgical skin (skin resident immune cells), LPS
# procedure_text: skin Resident Immune Cell Assay (sRICA), topical screening, TNFα protein expression
# Type: cell-based
# measurement_setup: mean TNFα level in LPS treated samples set to 100%
outcome_measure: TNFα Protein Expression (% relative to positive control) (%)
Report the figure in % without appending any unit label.

Some solved entries appear below for comparison.
{"molecule": "CC(C)CN1CCN(c2nn(C)cc2NC(=O)c2coc(-c3ccnc(NCC(F)(F)F)c3)n2)C1=O", "test_system": "human surgical skin (skin resident immune cells), LPS", "obs_value": 89.24}
{"molecule": "CC1C=C(CC(=O)c2coc(-c3ccnc(NCC(F)(F)F)c3)c2)C(C2CC(C)[C@H](C)C2=O)=C1 (some centres unmarked)", "test_system": "human surgical skin (skin resident immune cells), LPS", "obs_value": 67.49}
{"molecule": "CNCC1CN(c2nn(C)cc2NC(=O)c2coc(-c3ccnc(NCC(F)(F)F)c3)n2)C(=O)C1(C)C (centres unmarked) [drawing 29]", "test_system": "human surgical skin (skin resident immune cells), LPS", "obs_value": 92.45}
{"molecule": "C[C@H]1CCN(c2nn(C)cc2NC(=O)c2coc(-c3ccnc(NCC(F)(F)F)c3)n2)C1=O", "test_system": "human surgical skin (skin resident immune cells), LPS", "obs_value": 92.45}
{"molecule": "CC(C)N1CCN(c2nn(C)cc2NC(=O)c2coc(-c3ccnc(NCC(F)(F)F)c3)n2)C1=O", "test_system": "human surgical skin (skin resident immune cells), LPS", "obs_value": 90.44}
{"molecule": "Cn1cc(NC(=O)c2coc(-c3ccnc(NCC(F)(F)F)c3)n2)c(N2CCNC2=O)n1", "test_system": "human surgical skin (skin resident immune cells), LPS", "obs_value": 59.13}
{"molecule": "Cn1cc(NC(=O)c2coc(-c3ccnc(NCC(F)F)c3)n2)c(N2CCN(CCO)C2=O)n1", "test_system": "human surgical skin (skin resident immune cells), LPS", "obs_value": 72.75}

Proceeding to the next molecule to report its TNFα Protein Expression (% relative to positive control).
(Q) Which TNFα Protein Expression (% relative to positive control) value is on record for CN(C)CC1CN(c2nn(C)cc2NC(=O)c2coc(-c3ccnc(NCC(F)(F)F)c3)n2)C(=O)C1(C)C (centres unmarked) ?
(A) 86.94
